Data provenance: patent US20200087400A1

Molecular target: T1, PSA 146-154 peptide/HLA-A*02:01 complex on the cell surface (human)
T1 construct: also called PSA146/HLA-A*02:01; PSA146-loaded T2 cells
Assay: flow cytometry, phage on T2 cells, anti-M13 + R-PE anti-mouse IgG
RECORDED ENDPOINT: binding result

BINDER | RECORDED ENDPOINT | RESULT
PSA146/HLA-A*02:01-specific scFv phage clone #18 (scFv, V domains shown) VH: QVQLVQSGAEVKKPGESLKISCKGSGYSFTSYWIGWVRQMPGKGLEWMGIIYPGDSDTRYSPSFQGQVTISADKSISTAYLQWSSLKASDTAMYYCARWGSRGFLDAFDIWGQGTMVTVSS VL: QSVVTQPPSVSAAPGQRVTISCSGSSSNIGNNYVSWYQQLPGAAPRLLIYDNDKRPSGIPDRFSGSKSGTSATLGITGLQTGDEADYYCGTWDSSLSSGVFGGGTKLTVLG | binding result | binds
